Experiment: protease stability score; higher = more stable; yeast display proteolysis, trypsin and chymotrypsin
Entry flag: Satisfied if protease stability score reaches 1; Not satisfied if it does not.

Query string: Decide: protease stability score of DELEKAIHHILKELLEARLTGDWQMVIDRFDPHVLLRVGDKEFHGREIIRHLHEQFDHVEHVDLRLENHRYQGNKIHLDIKTTMDVRVGEKRVELRTESRIILLKVNGRWIIESVEIN >= 1?
Result string: Satisfied

Query string: Tell me whether protease stability score is at least 1 here: SEDAEYIKEFAELFFRWWITGDEEHLRSLADPHTRSDVNGRDIHGMELWSKMLLDHLTKIKNVRYTLREVRFFENHTELDMKVDINGKEMKFSIRVSLINGRLHSITVRLHSE
Result string: Satisfied

Query string: Reported protease stability score reaches at least 1 for DHHKESSEYLVRDYYEYIETGDFKRMEELADPNMKVVVGDKTHHGRESLSVVYLRLGIKHWDIKRIHNIGNKIRIHSTIFVDGVDMHEHSHAEKIDGRWLLRELSFE ?
Result string: Not satisfied

Query string: protease stability score >= 1 for HELEERLEKWFKKFLHNMMTGDEDKLIHLADPHAKFRIDGVESHGRENWSRYVEERHLKLGLENIHVNVHRVHVQGDKIDMTGTLEINGQRVDFHIHIEVVDGRIKRLIIIIE ?
Result string: Not satisfied

Query string: Dear colleague, could you confirm whether SEDEDELKEWIRIIIHLLTTGNEDLIENNADPNVRIEFNGKTYHGMEDFHEWMRYAINELRFHDFRLDSFRIVNGKVDLNTTLIGNINGVLTRRETRMIIIKVNGRWLIHALVFK has protease stability score at or above 1?
Result string: Satisfied

Query string: Check this sequence for protease stability score at or above 1: SEEEENAHKAMRFLEEVMKTGDEKSWLDLFDPDARIIIGDKHHIGWEHIHELMRRIDHIHDFHVHDVRSQGDKVFVDIKIDGIINGRRYRTRIEVIVRKFDGKWHIDHIQHN
Result string: Satisfied

Query string: Does protease stability score meet or surpass 1 for SKLEEDAHKMLDKILHNIRTGDEESEHRLADPEVKFHIGDKTFHGMSLVSKLLLHLRIRTERIENVNIRVINGVAEVEMRGVRDGEFNGVRVQVTVEEHFIIDKINGRWIIREIHVHII ?
Result string: Satisfied

Query string: Confirm if protease stability score reported for the sequence SEDDEIKKHVAERWLKRLETGDEKTLSKLLDPDVRLHINGRTLHGREEVVHELHKWYYELGVDHVILRHIDHVNGQLRLHNEIRFENRHTSEILVITKVDGQWIVKYIEIRDH is 1 or above.
Result string: Satisfied

Query string: In plain terms: is recorded protease stability score at least 1 for DEEEHLMREALNTFMRTLETGDERQLNELLDPDVRSRVDGQDLHGREHVVRLFEEFRRQARIHHVDVHHMDVIGDWIRVELRVDIRIGDKLYTYKKHIVALKVDGRWFMHRVEIH ?
Result string: Not satisfied

Query string: I'd appreciate it if you could say whether DKETKDSEKMSRMYFEYLLTGDFEKLLEMADPDVRFEFNGKEYIGMHETIEILERIWKDLGIKHSELKKVELQGEKAIIDGRIKYGDKEVNVKIILLVWNGKMREQRIHYQ has protease stability score at least equal to 1.
Result string: Satisfied

Query string: Textbook exercise: given the entry SEEEELDKKAFKLWIHSLRTGDEDLITELADPRVKMTIGDKEFHGREEFKHAMHELLKRVDHIKDVKLKHWDVINGRLHVIVEVNGNVDGRETYIETSMTSLKINGRWILQSWSVR , state whether its protease stability score is greater than or equal to 1.
Result string: Satisfied

###

For each entry below, report its protease stability score value.
Assay: protease stability score; higher = more stable; yeast display proteolysis, trypsin and chymotrypsin

DEKTEISEELLKIFVDLLQTGDEDIFQDMMDPRAQVHVNGKRIHGREHIIHWFREAHRHLGVKHTHIHRVEIQGEKVYIDGRLHYNGRDFNTHLIFDVINGRVKSMELRQH yielded protease stability score of 1.09

Given item EEMERDIKHAVEVMIRFWETGDERLLTELADPDTKSKIDGRTFHGREDIHKLFHSVIEKVKNIRIEFKRISVQGDKAKIDGTNNFNGREIKTDITLWKFDGRWILESIEIG , the value recorded as its protease stability score is 1.43

According to the records, this sequence EEEKKNRAHQFLKAVERGDPEELRKQFDPNAHARVGDKRYHGMEEWAKDVMRRVRELRMSIKRLSVDVQGNDVKVNMNLVINRNGKPKEFREVWYFKIHNGHFVELHVQEEP displays protease stability score of 1.24

###

Assay: protease stability score; higher = more stable; yeast display proteolysis, trypsin and chymotrypsin;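 note: relative to predicted unfolded state with 0 unfolded-like and 1 meaning tenfold more protease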
Property Measured: protease stability score
Returns: the value as a bare number; no unit string appended.

Measured protease stability score of DEEKKDLERLYELLLRSMFTGDWRALEELMDPNVLLQVNGKELHGWKLMVRVMREIRIEDHEVKHIELQGDKIHMDTRTHGEFDGRTDTTKTHVLAKKVDGQWRLKHYKID : 0.932

For reference, reported protease stability score for DEEEHIERTFKDLFEHALETGDEHLLKRLLDPHARFDINGRDFHGREEVRRFWEETEKKLGIKHSEFRFRRRDHQGDFVRIDLHVIIFIGDKIEHREVEFFLTKIDGVWMIREVRVR stands at 0.613

Please fill in: protease stability score reported for SEEDEEVRHVLELLIHAWRTGDERLLMHLLDPHAKFIVGDKELHGREQISRVWKELRIEDSDVHSIELVNGRLRLDTHLIITIGDKHVDVKTRELIVKIDGRWVLEFLEVR = 1.37

###

Test: protease stability score; higher = more stable; yeast display proteolysis, trypsin and chymotrypsin;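 note: relative to predicted unfolded state with 0 unfolded-like and 1 meaning tenfold more protease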
Property Measured: protease stability score
Provide a numeric answer; units are not to be included.

The sequence SEDEKLAEDFFELLRHLIHTGDENTLREFADPRTRVQINGREIHGWDESARHIMHETLRFKNMRINLHLKDRRVIGEKMELDVKVQLHFNGQTEEFDFILYVEKVNGKWVIKSIHVH showed protease stability score equal to 1.26

// sample SEDEEIWRRYAKEWYHNWSTGNFDRFKQLMDPDARFIYGDKELVGREEVLRRIRHLLEHLRFKRSEIKREHVVNGVLHLDVHEDGEQGDKSRRSDVEIILYVINGRLHTVEIRIE , its protease stability score was 1.61

Note to self: protease stability score recorded for SEEEEKAKKWLEEVLRAEETGDEEKLLELADPNVRWIFNGVDVIGRKHFERNIRESLEKIPNMRIEHFHLHRMETIDGRIDMETEEDGIINGRDIRTRRRIIVVKVDGRWIIKSVHLI was 0.637

###

I'd be grateful if you could share measured protease stability score for these entries.
Experiment: protease stability score; higher = more stable; yeast display proteolysis, trypsin and chymotrypsin;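 note: relative to predicted unfolded state with 0 unfolded-like and 1 meaning tenfold more protease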
A bare number is all that is needed in reply.

# protease stability score of DEWLEMAMRIIFRYLLLLATGDEDIVNHYMDPNVKIDVNGREEHGRERALEQLEEIRRQYPGLTLTHLHIEDLKVVGNYVRVDGYVEGRIDGRRIELKTEFIILKINGRWRMHSVKEH = 1.74

Item: SEEEELALKLLRVLWHHLETGDEETLNHLLDPDTRWNVDGVNFHGMRDFVRHFRERLKHARLHSLHVHRFSMINGVMHFDGEVNEIYGDKTERYRVRIELVVVNGRWKELYLHKI | protease stability score: 1.55

get_value(item= HEMEEMEELAFRLIEESIRTGDFTTLEDLFDPDTRIIIGDKDLHGREALRHLRERIDHLKELRVHRRTFIGDWLDMNLHMTGNVNGVEHRRDVRFIIWKINGQWRIHSVYEV , readout=protease stability score) returns 1.38

Sample DEERKDTKEAIERVRDTWRTGDEQDIFNNVDPNTRMIVGDKHHHGMEDVARLAFEWRVHDFRFHEVHSSEDHVILDGRVDGEINGRRINTKMILILLKIDGRWHIESIQYI ; protease stability score observed: 0.805

DEDKRHADRWVDELRRVMLTGDFDTYVEMLDPHVRIEVGDKVIHGREDLIKFMRERLDRLGYERVEIRIEVSDREKQGDKIELHGTLHLFIGDKEHTHKIRIWIRKVNGQWIAESERVQ has a reported protease stability score of 1.71

###

Kindly state protease stability score for each of the entries shown.
Test: protease stability score; higher = more stable; yeast display proteolysis, trypsin and chymotrypsin;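 note: relative to predicted unfolded state with 0 unfolded-like and 1 meaning tenfold more protease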
Answer with the value's number alone.

Documented protease stability score of DHEDERSRELTQILWKAWLTGDEELFHRLHDPDVRTEFDGREYHGWERFSELLNQFKNVRIRLRDYRIQGEKSKLDTQINIGDKRTRFHIEIYIIDGRLKNMRFEIE : 0.868

In plain terms, REEERLTRHFAHRLFHSLMTGDEDELTELADPNARSIVDGRTVHGRETMSRIIHHKVRELGVDHNTIEHIEFQGNYVHVHMRIEVGDKTYTSIIHIEKVDGRWLVRSVNLL has a documented protease stability score of 0.491

Kindly note the recorded protease stability score for SELEESLEKFLRALRHLTETGDEDTWKRLLDPTTRLEINGKEIHGREDVSRHWKELRFRSEDPKDYKIVDGVLRLDTRVDGVFNGQHREVDVEVIVFKVDGRWEIKRIRYH , which is 1.56

Entry under test: DEEEKDVRFFIKLLVHSLRTGDERALKHLLDPNVRMDINGREKIGWHQLRELLEEWRMHDIHITSVEVQGEKLFSHGLLEGVIGDKRVELEVEHTARKIDGRWIYTEVKFR . Its protease stability score was 1.32

Briefly, protease stability score measured for DEDEKMMELIIKWLQNWMLTGDFDVLHDLVDPHAKYDIGDKEMHGREAQSFLRRRFDHIEHVHLRIDDVESQGDKLIVHGQNTVVGEINGKRENFKRKVHITLEKIDGQWFEREVRVR : 1.51

Form field protease stability score, entry DDKEKHVKRISEILLHTWHTGNEESLNRMFDPEVKVYWNGRELVGRENSSKHLAEEKRRADHVEIEIKDVHVIGNKMIIDGTLRRHIGDYQDESEVHIHIEVVDGRIKRLELRIK : 1.1
